Exercise: for every item that follows, state its recorded apparent Kd.
test system: MS2 coat protein; test: apparent Kd, MS2 coat protein; higher = weaker binding; RNA-MaP array; FMN 200 µM where present; conditions: designed as: OFF switch for flavin mononucleotide; no ligand
Use nM as the unit, but write only the number.

Query UUACUAUUACAGAAGGUUAAAUAAUAUAUAAAUGAAGGAUAUGUAACAUGAGGAUCACCCAUGUUUCACCCACAUGAGGAUCAC yields apparent Kd of 13.9

Query AGCUGGUGACAGCAUCGAGCAAAACAUGAGGAUCACCCAUGUAGAAGGCUGUACGGUUACCGUACAGAGGAUAUACAUAGCUCG yields apparent Kd of 7.15

Query UGACGGAGCAGAGGAUAUACAUGAGGAUCACCCAUGUAAGAUCUCCAGGAAACUGGAGAUCAAAUGUAGAAGGCUGCUCCGUCA yields apparent Kd of 18.1

Query ACCAUUUACUAGUUUUCUAUACAUGAGGAUCACCCAUGUUUUGAGGAUAUCAGCGUGAAACACGCUGAGAAGGCAAAACAUUCG yields apparent Kd of 181

Query GAUCUCGUAGUGAGGAUAUUGCUCAUAGACAAUAGUAAGAAGGCACAUGAGGAUCACCCAUGUCGAGUGAGGUU yields apparent Kd of 69.9

Query GGUGUGAGGCAGGAUAUGCUAUAUGUAAGUAAUGCAGAAGGGUCUACAUGAGGAUCACCCAUGUGUGCGGUAGA yields apparent Kd of 105

Query AAAAAUAGAGGAUAUACAUGAAAAAAAAAAAAAAAAAAAAAACAUGAGGAUCACCCAUGUAGAAGGCUAAAAAA yields apparent Kd of 45.3
